system: M.catarrhalis
OBSERVATION_TYPE: MIC

Some entries whose results are on file:
# COMPOUND, SYSTEM_NAME, RESULT
data = [
    ("C=CC1=C(C(=O)O)N2C(=O)[C@@H](NC(=O)/C(=N\\O)c3csc(N)n3)[C@H]2SC1 [Cefdinir, reference compound]", "M.catarrhalis", "0.25 to 0.5 µg/mL"),
    ("Nc1nc(/C(=N/O)C(=O)N[C@@H]2C(=O)N3C(C(=O)O)=C(/C=C4\\CCN(CC(F)(F)F)C4=O)CS[C@H]23)cs1", "M.catarrhalis", "1 to 16 µg/mL"),
    ("Nc1nc(/C(=N/O)C(=O)N[C@@H]2C(=O)N3C(C(=O)O)=C(/C=C4\\CCN(C5CC5)C4=O)CS[C@H]23)cs1", "M.catarrhalis", "1 to 32 µg/mL"),
    ("CON1CC/C(=C\\C2=C(C(=O)O)N3C(=O)[C@@H](NC(=O)/C(=N\\O)c4csc(N)n4)[C@H]3SC2)C1=O", "M.catarrhalis", "1 to 32 µg/mL"),
    ("CC(C)(C)N1CC/C(=C\\C2=C(C(=O)O)N3C(=O)[C@@H](NC(=O)/C(=N\\O)c4csc(N)n4)[C@H]3SC2)C1=O", "M.catarrhalis", "2 to 32 µg/mL"),
]

We now examine a further compound.
QUERY: I'd like to know its MIC. The compound in question is "COc1ccc(N2CC/C(=C\C3=C(C(=O)O)N4C(=O)[C@@H](NC(=O)/C(=N\O)c5csc(N)n5)[C@H]4SC3)C2=O)cc1"
RESULT: 1 to 64 µg/mL
